Let's look at some compounds and their measured growth inhibition.
procedureDetails: NCI Yeast Anticancer Drug Screen. Data for the rad50 strain (AID 155);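 also: 0% = growth of vehicle-only cultures of the same strain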
testSettings: S. cerevisiae rad50 strain growth inhibition; at 50.0 µM; stronger effect = higher value
Compounds without any hit were thinned out: in the full panel of roughly 79,000, 15% have a hit.
measuredMetric: growth inhibition (%)

INSERT INTO assay_data (compound, endpointresult) VALUES
  ('CCC1(CC(C)(C)Cl)C(=O)NC(=O)NC1=O', -4.55),
  ('[N-]=[N+]=C1CNC(=O)NC1=O', 9.9),
  ('CS(=O)(=O)CCC(N)P(=O)(O)O (stereo unspecified)', -45.9),
  ('CC(C)CC(NC(=O)C(Cc1ccccc1)NC(=O)CNC(=O)CNC(=O)C(N)Cc1ccc(O)cc1)C(=O)O (stereo unspecified)', 0.9),
  ('COc1ccccc1[As]=[As]c1ccccc1OC (stereo unspecified)', 99.5),
  ('CC(=O)c1ccc(N2CCNCC2)cc1', -27.6);

###

procedureDetails: NCI Yeast Anticancer Drug Screen. Data for the sgs1 mgt1 strain (AID 161);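 also: 0% = growth of cultures given vehicle only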
testSettings: S. cerevisiae sgs1 mgt1 strain, at 50.0 µM, stronger effect = higher value
The panel holds about 79,000 compounds, 15% with a hit somewhere; the sample as a whole holds those more often.
measuredMetric: growth inhibition (%)

INSERT INTO assay_data (molecule, endpointresult) VALUES
  ('O=[N+]([O-])O.[In]', 50.3),
  ('CCN1C2CCC1CC(=O)C2', -5.7),
  ('O=Cc1ccccc1O', 12.4),
  ('O=[As](O)(O)c1cc(F)ccc1F', -11.4),
  ('COC1OC2COc3ccccc3OC2C(N=C(N)N[N+](=O)[O-])C1OS (configuration not stated)', 2.15),
  ('COc1cc(C(CC(=O)N(CCCl)CCCl)c2ccc3c(c2)OCO3)cc(OC)c1OC (configuration not stated)', 20.8),
  ('CN1CCc2ccc(O)cc2C1', 3.95);

###

procedureDetails: NCI Yeast Anticancer Drug Screen. Data for the cln2 rad14 strain (AID 165);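 also: 0% = growth equal to vehicle treated cultures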
testSettings: S. cerevisiae cln2 rad14 strain, at 50.0 µM, stronger effect = higher value
This is part of a sample that, as a whole, favours compounds with a hit. Of some 79,000 tested, about 15% had one in any assay.
measuredMetric: growth inhibition (%)

INSERT INTO assay_data (molecule, measuredmetric, endpointresult) VALUES
  ('O=C(O)C(CSC(c1ccccc1)c1ccccc1)NC(=O)C(c1ccccc1)c1ccccc1 (stereo unspecified)', 'growth inhibition', 96.2),
  ('Nc1ccccc1O.O.O=C(O)C1[O][Sb][O]C1C(=O)O (stereo unspecified)', 'growth inhibition', 33.3),
  ('COC(=O)N/N=C(\C)C(CN(C)C)C(c1ccccc1)c1c(O)c2ccccc2oc1=O (stereo unspecified)', 'growth inhibition', 34.6),
  ('CC1([N+](=O)[O-])COP(=O)(NCc2ccccc2)OC1 (stereo unspecified)', 'growth inhibition', -4.8),
  ('CC(C)c1cc2c(cc1O)C1(C)CCCC(C)(C)C1CC2=O (stereo unspecified)', 'growth inhibition', 22.4),
  ('[C-]#[O+].[C-]#[O+].[CH3][Sn]([CH3])[c]1ccccc1.[Fe+5].[c-]1[c-][c-][cH-][c-]1', 'growth inhibition', 95.3),
  ('CCCCCCCC[N+]12CN3CN(CN(C3)C1)C2', 'growth inhibition', 30.4),
  ('CN1C(=O)N(C)C(O)C(Cl)(Br)C1=O (stereo unspecified)', 'growth inhibition', 26.2),
  ('Cc1cc(Cl)ccc1OCCCC(=O)O', 'growth inhibition', 21),
  ('COP(=O)(OC)/C(C#N)=C/c1ccco1', 'growth inhibition', -27.8),
  ('CC1CN(C2CCCCC2)CO1 (stereo unspecified)', 'growth inhibition', -10.8);

Provenance of the data: PubChem BioAssay (NCI)
